Recorded below: MIC, system St. pneumoniae 12288.

CC[C@H]1OC(=O)[C@H](C)C(=O)[C@H](C)[C@@H](O[C@@H]2O[C@H](C)C[C@H](N(C)C)[C@H]2O)[C@](C)(OC)C[C@@H](C)C(=O)[C@H](C)[C@H]2[C@H](SCc3ccccc3)C(=O)O[C@@]21C [Compound I-4]	16 µg/mL
CC[C@H]1OC(=O)[C@H](C)C(=O)[C@H](C)[C@@H](O[C@@H]2O[C@H](C)C[C@H](N(C)C)[C@H]2O)[C@](C)(OC)C[C@@H](C)C(=O)[C@H](C)[C@H]2CC(=O)O[C@@]21C [Compound I-25]	> 16 µg/mL

Next compound, MIC to be filled in.
Entry CC[C@H]1OC(=O)[C@H](C)C(=O)[C@H](C)[C@@H](O[C@@H]2O[C@H](C)C[C@H](N(C)C)[C@H]2O)[C@](C)(OC)C[C@@H](C)C(=O)[C@H](C)[C@H]2[C@H](C#N)C(=O)O[C@@]21C [Compound I-23] under St. pneumoniae 12288 had MIC of > 32 µg/mL
